Overview of reported melting point across a group of compounds:

Study these solved cases before continuing.
# compound, measured_metric, observed_result
measured = [
    ("OC(Cn1cncn1)(c1ccccc1)C1OC1c1ccccc1Cl (centres undefined)", "melting point", "180 to 182 °C"),
    ("CCNC(=O)c1ccc(N2CCN(Cc3cc4c(c(OC(F)F)c3)OC(C)C(=O)N4)CC2)cc1 (centres undefined)", "melting point", "219 to 224 °C"),
    ("CN1CCN(CCCCC(=O)N2c3ccccc3C(=O)Nc3cccnc32)CC1", "melting point", "151 to 153 °C"),
]

Okay, next one:
melting point measured on `O=C(c1cccs1)c1cnn2c(-c3cccc(N(C(=O)c4c(Cl)cccc4Cl)C(=O)c4c(Cl)cccc4Cl)c3)ccnc12` = 238 to 240 °C
